endpoint_label: melting point (°C)

O=C1N(c2cc(Cl)cc(Cl)c2)C(=O)C2(Cc3ccc(-c4cccnc4)cc3)CCCCN12 (stereo not shown) [Example 7] : 276.5
CC(=O)c1cccc(N2C(=O)N3CCCC3(Cc3ccc(Br)cc3)C2=O)c1 (stereo not shown) [Example 237] : 120.4
CC(=O)N[C@@H]1CN2C(=O)N(c3cc(Cl)cc(Cl)c3)C(=O)[C@]2(Cc2ccc(OC(F)(F)F)cc2)C1 [Example 291] : 61.2
CC(=O)N1CCCC2(Cc3ccc(Br)cc3)C(=O)N(c3cc(Cl)nc(Cl)c3)C(=O)N12 (stereo not shown) [Example 101] : 91

[I] CS(=O)(=O)c1ccc(CC23CCCN2C(=O)N(c2cc(Cl)cc(Cl)c2)C3=O)cc1 (stereo not shown) [Example 190]
[II] O=C1N(c2cc(Cl)cc(Cl)c2)C(=O)C2(Cc3ccc(OC(F)(F)F)cc3)C[C@@H](O)CN12 (stereo in doubt) [Example 268]
[III] O=C1N(c2cccc(F)c2)C(=O)C2(Cc3ccc(Br)cc3)CCCN12 (stereo not shown) [Example 238]
(Q) Hey, quick one: sort these by melting point, largest value first please. Put the labels in the order asked and list them.
(A) III, I, II
(III: 120.9 °C, I: 80.3 °C, II: 50.4 °C)
